The measurements presented in this section are drawn from patent US10654847B2.

Biological target: mAChR M1 (UniProt P11229)
Sequence (P11229 1-460): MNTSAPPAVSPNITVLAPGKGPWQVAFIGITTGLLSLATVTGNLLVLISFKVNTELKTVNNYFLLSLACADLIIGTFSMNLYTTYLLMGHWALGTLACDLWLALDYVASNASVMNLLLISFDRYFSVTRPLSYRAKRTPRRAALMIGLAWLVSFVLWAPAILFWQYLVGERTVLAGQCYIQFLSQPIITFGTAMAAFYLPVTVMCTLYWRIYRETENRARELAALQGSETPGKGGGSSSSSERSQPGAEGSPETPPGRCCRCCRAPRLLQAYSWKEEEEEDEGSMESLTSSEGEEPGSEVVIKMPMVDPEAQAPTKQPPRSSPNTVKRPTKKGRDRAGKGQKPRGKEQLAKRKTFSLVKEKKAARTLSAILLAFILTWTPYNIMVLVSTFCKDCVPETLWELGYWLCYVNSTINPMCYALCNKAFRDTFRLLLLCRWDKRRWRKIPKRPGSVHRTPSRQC
Test: mAChR M1 cell-based functional assay (calcium mobilization, potentiation of EC20 acetylcholine response)
Conditions: positive allosteric modulation of EC20 ACh response, mAChR M1 CHO-K1 cells; <5 estimated where no plateau
Given measured pEC50, output 1 if it is greater than or equal to 6 and 0 if not.

MOLECULE	QUALITATIVE_LABEL
Cn1cc(-c2ccc(CN3Cc4ccncc4C3=O)c(F)c2)cn1 [Example B8]	0
O=C1c2cccnc2CN1Cc1ccc(-c2ccc3ccncc3c2)cc1F [Example B49]	0
O=C1c2cccnc2CN1Cc1ccc(-c2cccnc2)cc1F [Example B47]	0
O=C1c2ccccc2CN1Cc1ccc(-c2ccncc2)cc1F [Example B11]	0
O=S1(=O)c2ccccc2CN1Cc1ccc(-n2cccc2)cc1 [Example B125]	0
Cn1ccc2ccc(-c3ccc(CN4Cc5ccccc5C4=O)c(F)c3)cc21 [Example B10]	0
O=C1c2ncccc2CN1Cc1ccc(-c2cccnc2)cc1Cl [Example B67]	0
Cc1nnc(-c2ccc(CN3Cc4ccccc4S3(=O)=O)cc2)o1 [Example B123]	0
CC1c2ccccc2C(=O)N1Cc1ccc(-c2cnn(C)c2)cc1F (stereo not shown) [Example B113]	0
Cc1n[nH]c2ccc(-c3cc(F)c(CN4Cc5ncccc5C4=O)c(F)c3)cc12 [Example B102]	1

Quick check: does Cn1cc(-c2ccc(CN3Cc4cccnc4C3=O)c(F)c2)cn1 [Example B25] have pEC50 greater than or equal to 6?
0

Quick check: does O=C1c2cccnc2CN1Cc1c(F)cc(-c2cccc3cnccc23)cc1F [Example B99] have pEC50 greater than or equal to 6?
0

====

Target: mAChR M1 (UniProt P11229)
Experiment: mAChR M1 cell-based functional assay (calcium mobilization, potentiation of EC20 acetylcholine response)
Details: positive allosteric modulation of EC20 ACh response, mAChR M1 CHO-K1 cells; >10 μM estimated where no plateau; read-out: EC50
Protocol: Chinese hamster ovary (CHO-K1) cells stably expressing rat (r)M1 were purchased from the American Type Culture Collection and cultured according to their indicated protocol. […] Calcium flux was measured using the Functional Drug Screening System (FDSS) 6000 (Hamamatsu Corporation, Tokyo, Japan) as an increase in the fluorescent static ratio. […] Agonist activity was analyzed as a concentration-dependent increase in calcium mobilization upon compound addition. […]
EXPERIMENTAL_ENDPOINT: EC50 (nM)
One number for each entry, in nM.

Reference set (10 entries):
COMPOUND	SCALE_UNIT	NUMERIC_VALUE
Cc1cc(-c2ccc(CN3Cc4ncccc4C3=O)c(F)c2)cnc1Cl [Example B46]	nM	1020
O=C1c2cccnc2CN1Cc1c(F)cc(-c2ccc3nccn3c2)cc1F [Example B80]	nM	851
CN1Cc2ccc(-c3cc(F)c(CN4Cc5ncccc5C4=O)c(F)c3)cc2C1 [Example B107]	nM	1740
O=C1c2ccccc2CN1Cc1ccc(-c2ccncc2)cc1F [Example B11]	nM	3400
COc1ccc(-c2ccc(CN3Cc4ncccc4C3=O)c(F)c2)cc1 [Example B50]	nM	977
O=C1c2ncccc2CN1Cc1ccc(-c2ccc3cnccc3c2)cc1Cl [Example B69]	nM	1350
CN1CC=C(c2ccc(CN3Cc4ncccc4C3=O)c(F)c2)CC1 [Example B53]	nM	3090
CN(C)c1ccc(-c2ccc(CN3Cc4cccnc4C3=O)c(F)c2)cn1 [Example B78]	nM	1260
Cn1cc(-c2ccc(CN3Cc4ccncc4C3=O)c(F)c2)cn1 [Example B8]	nM	2800
O=C1c2cccnc2CN1Cc1ccc(-c2cccc3ncccc23)cc1F [Example B42]	nM	3630

List reported EC50 for each of these compounds:
1. O=C1c2cccnc2CN1Cc1ccc(-c2ccc(Cl)nc2)cc1F [Example B30]
2. O=C1c2ncccc2CN1Cc1ccc(-c2cnc3ccccc3c2)cc1F [Example B66]
3. Cn1cc2cc(-c3ccc(CN4Cc5ncccc5C4=O)c(F)c3)ccc2n1 [Example B1]
4. Cn1cc2cc(-c3ccc(CN4Cc5ncncc5C4=O)c(F)c3)ccc2n1 [Example B56]
5. Cn1ncc2ccc(-c3ccc(CN4Cc5cccnc5C4=O)c(F)c3)cc21 [Example B60]

[3470, 1440, 1100, 398, 1590]
